Catalogue of binders with associated KD 5(-)/7(+)
ASSAYED TARGET: T1, human C1s (human, UniProt P09871 16-688)
T1 construct: Analyte in the Biacore assays; also called hC1s; serum-derived human C1s (CompTech)
T1 sequence: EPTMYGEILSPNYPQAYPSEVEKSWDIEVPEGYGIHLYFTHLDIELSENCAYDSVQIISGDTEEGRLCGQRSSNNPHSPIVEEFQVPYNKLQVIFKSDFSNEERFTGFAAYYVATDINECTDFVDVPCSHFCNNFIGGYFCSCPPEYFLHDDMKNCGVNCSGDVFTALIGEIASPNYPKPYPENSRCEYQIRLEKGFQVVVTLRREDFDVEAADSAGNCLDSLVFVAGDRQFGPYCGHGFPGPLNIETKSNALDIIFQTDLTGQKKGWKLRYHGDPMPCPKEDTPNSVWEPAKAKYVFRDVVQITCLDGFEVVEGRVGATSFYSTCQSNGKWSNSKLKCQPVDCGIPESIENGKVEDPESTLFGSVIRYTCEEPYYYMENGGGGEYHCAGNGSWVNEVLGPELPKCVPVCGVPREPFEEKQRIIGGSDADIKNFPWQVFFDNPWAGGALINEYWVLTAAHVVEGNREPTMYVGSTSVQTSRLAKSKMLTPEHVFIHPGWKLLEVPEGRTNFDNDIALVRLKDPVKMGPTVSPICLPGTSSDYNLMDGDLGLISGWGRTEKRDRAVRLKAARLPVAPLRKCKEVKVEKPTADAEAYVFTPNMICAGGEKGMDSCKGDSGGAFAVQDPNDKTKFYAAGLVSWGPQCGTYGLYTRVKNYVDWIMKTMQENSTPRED
PROTOCOL TEXT: SPR; KD at pH 5.8 (3 uM Ca) over KD at pH 7.4 (1.2 mM Ca)
# answer = number (no unit)

BINDER	KD 5(-)/7(+)
C1_IPN92H0156-SG4GK/IPN93L0024-SK1 (antibody, human IgG4 S228P, kappa, name in Kabat numbering, V domains shown, Substitutions from IPN009VH2, Kabat numbering; also called IPN92H0156/IPN93L0024) VH: EVMLVESGGGLVKPGGSLRLSCAASGFTFSNYAMSWVRQAPGKGLEWVATISSGGSHTKYLDSVKGRFTISRDNSKDTLYLQMNSLRAEDTALYYCARLFTGHAMDYWGQGTLVTVSS VL: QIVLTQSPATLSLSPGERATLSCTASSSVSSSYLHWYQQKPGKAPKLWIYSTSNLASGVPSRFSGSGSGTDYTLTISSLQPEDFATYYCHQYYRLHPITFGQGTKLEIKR	4.62

Please turn your attention to the following entry.
## Input Provide only the value of recorded KD 5(-)/7(+) for C1_IPN92H0166-SG4GK/IPN93L0024-SK1 (antibody, human IgG4 S228P, kappa, name in Kabat numbering, V domains shown, Substitutions from IPN009VH2, Kabat numbering; also called IPN92H0166/IPN93L0024) VH: EVMLVESGGGLVKPGGSLRLSCAASGFTFSNYAMSWVRQAPGKGLEWVATISSGGSHTYYEDSVKGRFTISRDNSKDTLYLQMNSLRAEDTALYYCARLFTGHAMDYWGQGTLVTVSS VL: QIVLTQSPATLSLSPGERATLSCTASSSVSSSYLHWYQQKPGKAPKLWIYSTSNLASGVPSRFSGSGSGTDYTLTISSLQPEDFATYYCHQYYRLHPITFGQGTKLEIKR
## Output 3.84
